The measured values listed here are drawn from ChEMBL document CHEMBL4017544.

Below, each entry is listed with its recorded AUC(0-t) at 24 h.
Experiment: AUC (0 to t) in Sprague-Dawley rat at 10 mg/kg, iv measured up to 24 hrs by LC-MS/MS analysis
Type: ADME, organism-based
Set-up: dose 10 mg/kg, time < 24 hr, route intravenous
Conditions: in vivo
Please give a number only; it is taken to be in ng·h/mL.

Quick one: AUC(0-t) at 24 h of COC(=O)[C@]12CCC(C)(C)C[C@H]1[C@H]1C(=O)C=C3[C@@]4(C)C=C(C#N)C(=O)C(C)(C)[C@@H]4CC[C@@]3(C)[C@]1(C)CC2 ?
2060

Turning now to a further compound:
Which value of AUC(0-t) at 24 h has been reported for COC(=O)[C@@H](N)CCC(=O)Nc1ccc(COC2=C(C#N)[C@H](O)[C@]3(C)C4=CC(=O)[C@@H]5[C@@H]6CC(C)(C)CC[C@]6(C(=O)OC)CC[C@@]5(C)[C@]4(C)CC[C@H]3C2(C)C)cc1 in the records?
509

* * *

Experiment: Drug level in Sprague-Dawley rat kidney at 30 mg/kg, ip measured at 10 mins by LC-MS/MS analysis
Assay type: ADME, organism-based
Conditions: read-out: Drug uptake
Experimental Readout: concentration at 10 min (ng/g)
Form entry: value (ng/g) — number only.

May I ask what concentration at 10 min has been recorded for COC(=O)[C@@H](N)CCC(=O)Nc1ccc(COC2=C(C#N)[C@H](O)[C@]3(C)C4=CC(=O)[C@@H]5[C@@H]6CC(C)(C)CC[C@]6(C(=O)OC)CC[C@@]5(C)[C@]4(C)CC[C@H]3C2(C)C)cc1 ?
1230

* * *

Assay: Cmax in Sprague-Dawley rat at 10 mg/kg, iv measured up to 24 hrs by LC-MS/MS analysis
Type: ADME, organism-based
Parameters: dose 10 mg/kg, route intravenous
Conditions: in vivo
Experimental Readout: Cmax (ng/mL)
# value in ng/mL; strip the unit string

# lookup: Cmax of COC(=O)[C@@H](N)CCC(=O)Nc1ccc(COC2=C(C#N)[C@H](O)[C@]3(C)C4=CC(=O)[C@@H]5[C@@H]6CC(C)(C)CC[C@]6(C(=O)OC)CC[C@@]5(C)[C@]4(C)CC[C@H]3C2(C)C)cc1
3020

Please find the next compound below.
Suppose we examine the compound COC(=O)[C@]12CCC(C)(C)C[C@H]1[C@H]1C(=O)C=C3[C@@]4(C)C=C(C#N)C(=O)C(C)(C)[C@@H]4CC[C@@]3(C)[C@]1(C)CC2 ; what Cmax value has been reported?
5020

* * *

Assay: Solubility of compound in saline containing 1% 1,3-propylene glycol/ 1% Tween 80 at 100 uM at pH 7.4 by HPLC analysis
Type: physicochemical
Conditions: saline containing 1% 1,3-propylene glycol/1% Tween 80, pH 7.4
Experimental Readout: solubility at 100 µM

Record request: solubility at 100 µM value, item COC(=O)[C@@H](N)CCC(=O)Nc1ccc(COC2=C(C#N)[C@H](O)[C@]3(C)C4=CC(=O)[C@@H]5[C@@H]6CC(C)(C)CC[C@]6(C(=O)OC)CC[C@@]5(C)[C@]4(C)CC[C@H]3C2(C)C)cc1
12.2 mg/mL

* * *

Experiment: Drug metabolism in PBS buffer at 100 uM after 8 hrs by HPLC analysis
Assay type: physicochemical
Details: read-out: Drug metabolism
Experimental Readout: degraded at 8 h, 100 µM (%)
Write the answer as a number in %, unit excluded.

// lookup degraded at 8 h, 100 µM for COC(=O)[C@@H](N)CCC(=O)Nc1ccc(COC2=C(C#N)[C@H](O)[C@]3(C)C4=CC(=O)[C@@H]5[C@@H]6CC(C)(C)CC[C@]6(C(=O)OC)CC[C@@]5(C)[C@]4(C)CC[C@H]3C2(C)C)cc1
20
